# log10 of IC50 listing for each entry below
- Experimental target: UniProtKB Q6SZW1
- Procedure details: FL-SARM1 cellular lysate assay (NAD/NADH-Glo readout of remaining NAD+)
- Experimental context: Activity (μM), SARM1 cellular lysate from transfected HEK293T cells, NAD+ and NMN, 11 point curve
Parameter value (number): base-10 log of IC50 in µM.

Answered examples (5):
| Compound | Attribute measured | Reported value |
| --- | --- | --- |
| Cc1ccc(NC(=O)N2CC3CC2c2ccccc23)cc1-c1cncc(F)c1 (stereo not shown) [Example 95] | log10 of IC50 | -0.70 |
| Cc1ccc(NC(=O)N2C[C@@H]3C[C@H]2C[C@H]3OC(F)F)cc1-c1cncc(F)c1 (racemic) [Example 31] | log10 of IC50 | 1.46 |
| Cc1nnc([C@]23C[C@H](C)C[C@H](C2)N3C(=O)Nc2ccc(C)c(-c3cncc(F)c3)c2)o1 (single isomer, unassigned) [Example 127] | log10 of IC50 | -2.00 |
| Cc1nnc([C@]23C[C@H](C)C[C@H](C2)N3C(=O)Nc2ccc(C)c(-c3cncc(F)c3)c2)o1 (single isomer, unassigned) [Example 128] | log10 of IC50 | 1.06 |
| Cc1ccc(NC(=O)N2C3C[C@H]2C[C@]2(C3)CC2(F)F)cc1-c1cncc(F)c1 (stereo in doubt) [Example 10] | log10 of IC50 | -0.52 |

Entry under test: C[C@@H]1CC2C[C@@H](C1)N2C(=O)Nc1ccc(C(F)(F)F)c(-c2cncc(F)c2)c1 (single isomer, unassigned) [Example 52] . Its log10 of IC50 was -1.10

Lab note: measured log10 of IC50 of Cc1ccc(NC(=O)N2C3C[C@@H](C)C[C@@H]2C3)cc1-c1cncc(F)c1 (single isomer, unassigned) [Example 83] was -2.00

The value of log10 of IC50 measured for the compound Cc1ccc(NC(=O)N2C3C[C@@H]2C[C@@](C)(C#N)C3)cc1-c1cncc(F)c1 (stereo in doubt) [Example 43] turned out to be -0.30

Entry under test: Cc1ncc(-c2cc(NC(=O)N3C4CCCC3C4)ccc2C)cn1 [Example 85] . Its log10 of IC50 was 0.26

get_value(item= Cc1nnc([C@]23C[C@H](C)C[C@H](C2)N3C(=O)Nc2cc(-c3cncc(F)c3)c(C)cc2F)o1 (single isomer, unassigned) [Example 124] , readout=log10 of IC50) returns 0.74

Entry under test: Cc1ccc(NC(=O)N2[C@H](C)CCC[C@H]2C)cc1-c1cncc(F)c1 [Example 22] . Its log10 of IC50 was 0.08

Record COC(=O)[C@H]1CC2C[C@@H](C1)N2C(=O)Nc1ccc(C)c(-c2cncc(F)c2)c1 (single isomer, unassigned) [Example 13] . Reported log10 of IC50: 0.53

Record summary for COc1c(F)cncc1-c1cc(NC(=O)N2C3CCCC2C3)ccc1C [Example 90] : reported log10 of IC50 = 0.28

What the record says about Cc1ccc(NC(=O)[C@@H]2CC2(F)F)cc1-c1cnc(C(F)(F)F)nc1 [Example 113] : log10 of IC50 is 1.54

The compound listed as Cc1ccc(NC(=O)N2C3C[C@@H](C#N)C[C@@H]2C3)cc1-c1cncc(F)c1 [Example 36] has a reported log10 of IC50 of -0.10

Query Cc1ccc(NC(=O)N2C3CCCC2C3)cc1-c1cccnc1C [Example 69] yields log10 of IC50 of 0.20

Notebook: Cc1ccc(NC(=O)N2C3CCC2(C)CC3)cc1-c1cncc(F)c1 [Example 5] , log10 of IC50 read as -0.52

Noted for O=C(Nc1ccc(F)c(-c2cncc(F)c2)c1)N1C2CCCC1C2 [Example 74] : its log10 of IC50 reads 0.45

// log10 of IC50 value for Cc1ccc(NC(=O)N2C3CCCC2C3)cc1-c1cncc(OC(F)F)c1 [Example 48] : -1.00

----------
- Experimental target: full-length SARM1 (FL-SARM1) (Homo sapiens)
- Procedure details: FL-SARM1 cellular lysate assay (NAD/NADH-Glo readout of remaining NAD+)
- Experimental context: Activity (μM), SARM1 cellular lysate from transfected HEK293T cells, NAD+ and NMN, 11 point curve
Flag rule - IC50 less than 0.9 µM flags Fulfilled; the remaining entries get Not fulfilled.

These recorded examples may help you get a feel for the data.
| Compound | Experimental target | Class label |
| --- | --- | --- |
| COc1cncc(-c2cc(NC(=O)N3C4CCCC3C4)ccc2C)c1 [Example 71] | full-length SARM1 (FL-SARM1) (Homo sapiens) | Fulfilled |
| Cc1ccc(NC(=O)N2C3CCCC2C3)cc1-c1cnnnc1 [Example 130] | full-length SARM1 (FL-SARM1) (Homo sapiens) | Not fulfilled |

A record lists Cc1ccc(NC(=O)[C@H]2C[C@@](C#N)(C3CC3)C2)cc1-c1cncc(F)c1 [Example 106] . Is its IC50 below 0.9 µM?
Fulfilled

In plain terms, does COc1cncc(-c2cc(NC(=O)N3[C@@H]4C[C@@H](C)C[C@@]3(c3nnc(C)o3)C4)c(F)cc2C(F)(F)F)c1 (single isomer, unassigned) [Example 122] come in under 0.9 µM for IC50?
Not fulfilled

Just wondering, is IC50 of Cc1ccc(NC(=O)N2C3CCCC2C3)cc1-c1ccc(C#N)nc1 [Example 60] below 0.9 µM?
Not fulfilled

Identify whether the compound C[C@@H]1CC2C[C@H](C1)N2C(=O)Nc1ccc(F)c(-c2cncc(F)c2)c1 (single isomer, unassigned) [Example 58] records IC50 below 0.9 µM.
Fulfilled

Is it true that IC50 reported for CCO[C@H]1CC2C[C@H](C1)N2C(=O)Nc1ccc(C)c(-c2cncc(F)c2)c1 [Example 39] is less than 0.9 µM?
Not fulfilled

Please check: IC50 for C[C@H]1CC2C[C@@H](C1)N2C(=O)Nc1ccc(C#N)c(-c2cncc(F)c2)c1 (single isomer, unassigned) [Example 78] , strictly under 0.9 µM or not?
Fulfilled

----------
The molecules listed here are annotated with their IC50.
- Experimental target: full-length SARM1 (FL-SARM1) (Homo sapiens)
- Sequence (Q6SZW1 28-724): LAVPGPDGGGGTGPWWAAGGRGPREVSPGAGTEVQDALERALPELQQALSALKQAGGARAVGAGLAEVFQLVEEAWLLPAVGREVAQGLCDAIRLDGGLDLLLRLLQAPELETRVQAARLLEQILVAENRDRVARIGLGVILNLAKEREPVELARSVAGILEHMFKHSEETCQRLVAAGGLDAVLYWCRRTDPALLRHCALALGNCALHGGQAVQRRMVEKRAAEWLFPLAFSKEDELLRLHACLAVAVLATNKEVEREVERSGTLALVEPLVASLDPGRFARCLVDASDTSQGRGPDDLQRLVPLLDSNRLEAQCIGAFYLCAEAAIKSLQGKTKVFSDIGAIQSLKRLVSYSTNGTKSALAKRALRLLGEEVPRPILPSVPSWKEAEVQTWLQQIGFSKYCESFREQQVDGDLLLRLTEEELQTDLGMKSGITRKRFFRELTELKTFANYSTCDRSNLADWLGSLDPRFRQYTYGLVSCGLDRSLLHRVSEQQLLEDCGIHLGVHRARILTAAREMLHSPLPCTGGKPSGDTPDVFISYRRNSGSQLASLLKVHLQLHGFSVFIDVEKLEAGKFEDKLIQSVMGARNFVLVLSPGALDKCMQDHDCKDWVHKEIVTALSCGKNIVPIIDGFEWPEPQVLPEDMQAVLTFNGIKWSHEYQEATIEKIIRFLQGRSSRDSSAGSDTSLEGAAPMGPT
- Procedure details: FL-SARM1 cellular lysate assay (NAD/NADH-Glo readout of remaining NAD+)
- Experimental context: Activity, SARM1 cellular lysate from transfected HEK293T cells, NAD+ and NMN, 11 point curve

Some entries whose results are on file:
| Molecule | IC50 |
| --- | --- |
| Cc1ccc(NC(=O)OC2CCC2)cc1-c1cccnc1 [Example 129] | > 10000 nM |
| Cc1ccc(NC(=O)N2CC3CC2c2ccccc23)cc1-c1cncc(F)c1 (stereo not shown) [Example 95] | 0.1 to 1000 nM |
| Cc1ccc(NC(=O)[C@H]2C[C@@H](C3CC3)C2)cc1-c1cncc(F)c1 [Example 109] | 0.1 to 1000 nM |
| Cc1ccc(NC(=O)N2C3CC[C@H](C(=O)N(C)C)[C@@H]2C3)cc1-c1cncc(F)c1 [Example 33] | > 10000 nM |
| O=C(Nc1ccc(Cl)c(-c2cncc(F)c2)c1)N1C2C[C@H](OC(F)F)C[C@H]1C2 [Example 55] | 0.1 to 1000 nM |

Data point: Cc1ccc(NC(=O)N2[C@H](C)CCC[C@@H]2C)cc1-c1cncc(F)c1 [Example 21] ; IC50 = 1000 to 10000 nM

Looking up C[C@@H]1CC2C[C@@H](C1)N2C(=O)Nc1ccc(F)c(-c2cncc(F)c2)c1 (single isomer, unassigned) [Example 57] , I see its IC50 listed as 0.1 to 1000 nM

IC50 recorded for this molecule, O=C(Nc1ccc(CC(F)F)c(-c2cncc(F)c2)c1)N1C2CCCC1C2 [Example 23] , is 0.1 to 1000 nM

get_value(item= Cc1ccc(NC(=O)N2C[C@@H](C)CC[C@H]2C)cc1-c1cncc(F)c1 (racemic) [Example 8] , readout=IC50) returns 1000 to 10000 nM
